- assayRemarks: Inhibition of wild-type Pseudomonas aeruginosa DNA topoisomerase-4 mediated supercoiled pBR322 DNA relaxation by ethidium bromide based agarose gel electrophoresis
Kindly supply the reported IC50 values for the records listed here.
Reply with just the number (in nM).

// IC50 value for `COc1ccc2ncc(F)c(C[C@H](O)[C@@H]3CC[C@@H](NCc4ccc5c(n4)NC(=O)CO5)CO3)c2n1` : 125

// IC50 value for COc1ccc2nccc(C(N)C[C@@H]3CC[C@@H](NCc4ccc5c(n4)NC(=O)CO5)CO3)c2n1 (mixture of isomers) : 125

// IC50 value for `COc1ccc2ccc(=O)n(C[C@H](O)[C@@H]3CC[C@@H](NCc4cc5c(cn4)OCCO5)CO3)c2n1` : 125

// IC50 value for `COc1ccc2ncc(=O)n(C[C@H](N)[C@@H]3CC[C@@H](NCc4ccc5c(n4)NC(=O)CO5)CO3)c2c1` : 30

====

Kindly supply the reported IC50 values for the records listed here.
- assayRemarks: Inhibition of wild-type Acinetobacter baumannii DNA gyrase supercoiling activity using relaxed pBR322 DNA as substrate by ethidium bromide based agarose gel electrophoresis
Reply with just the number (in nM).

// IC50 value for COc1ccc2nccc(C(N)C[C@@H]3CC[C@@H](NCc4ccc5c(n4)NC(=O)CO5)CO3)c2n1 (mixture of isomers) : 2000

// IC50 value for COc1ccc2nccc(CC(N)[C@@H]3CC[C@@H](NCc4ccc5c(n4)NC(=O)CO5)CO3)c2n1 (mixture of isomers) : 500

// IC50 value for `COc1cnc2ccc(=O)n(C[C@H](N)[C@@H]3CC[C@@H](NCc4ccc5c(n4)NC(=O)CO5)CO3)c2n1` : 125

// IC50 value for `COc1ccc2ccc(=O)n(C[C@H](O)[C@@H]3CC[C@@H](NCc4cc5c(cn4)OCCS5)CO3)c2n1` : 125

// IC50 value for `COc1cnc2ccc(=O)n(C[C@H](N)[C@@H]3CC[C@@H](NCc4ccc5c(n4)NC(=O)CO5)CO3)c2c1` : 30

// IC50 value for `COc1ccc2ncc(=O)n(C[C@H](N)[C@@H]3CC[C@@H](NCc4ccc5c(n4)NC(=O)CO5)CO3)c2c1` : 30

// IC50 value for COc1ccc2ncc(F)c(CC(N)[C@@H]3CC[C@@H](NCc4ccc5c(n4)NC(=O)CO5)CO3)c2n1 (mixture of isomers) : 125

// IC50 value for `COc1ccc2ncc(=O)n(C[C@H](N)[C@@H]3CC[C@@H](NCc4ccc5c(n4)NC(=O)CO5)CO3)c2n1` : 125

// IC50 value for `COc1ccc2ncc(F)c(C[C@H](O)[C@@H]3CC[C@@H](NCc4ccc5c(n4)NC(=O)CO5)CO3)c2n1` : 125

// IC50 value for `COc1ccc2nccc(C[C@H](N)[C@@H]3CC[C@@H](NCc4ccc5c(n4)NC(=O)CO5)CO3)c2n1` : 125

// IC50 value for `COc1ccc2ccc(=O)n(C[C@H](O)[C@@H]3CC[C@@H](NCc4cc5c(nn4)OCCS5)CO3)c2n1` : 2000

// IC50 value for `COc1ccc2ccc(F)c(C[C@H](N)[C@@H]3CC[C@@H](NCc4ccc5c(n4)NC(=O)CO5)CO3)c2n1` : 30

// IC50 value for `COc1ccc2ccc(=O)n(C[C@H](O)[C@@H]3CC[C@@H](NCc4cc5c(nn4)OCCO5)CO3)c2n1` : 8000

// IC50 value for `COc1ccc2ccc(=O)n(C[C@H](N)[C@@H]3CC[C@@H](NCc4ccc5c(n4)NC(=O)CO5)CO3)c2c1` : 125

// IC50 value for `COc1ccc2ncc(F)c(C[C@@H](N)[C@@H]3CC[C@@H](NCc4ccc5c(n4)NC(=O)CO5)CO3)c2n1` : 500
